# STUDY_SYSTEM: T1, human NMI (N-myc Interacting protein), recombinant protein (human, UniProt Q13287 1-307, limits assumed)
# T1 construct: Gene ID: 9111; also called hNMI; antigen
# T1 sequence (looked up): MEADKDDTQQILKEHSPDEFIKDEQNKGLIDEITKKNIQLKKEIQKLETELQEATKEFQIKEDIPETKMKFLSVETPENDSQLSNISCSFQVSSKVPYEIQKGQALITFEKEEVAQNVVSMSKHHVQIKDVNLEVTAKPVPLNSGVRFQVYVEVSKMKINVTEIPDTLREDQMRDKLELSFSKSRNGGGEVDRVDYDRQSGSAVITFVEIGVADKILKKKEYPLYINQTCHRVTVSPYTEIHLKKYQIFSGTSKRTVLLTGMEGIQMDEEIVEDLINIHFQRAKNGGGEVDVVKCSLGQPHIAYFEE
# EXPERIMENT_DESCRIPTION: sandwich ELISA; detection 94C4-1-biotin 0.5µg/mL; hNMI 6,250.000 pg/mL
QUANTITY: OD450 (OD450)
Report the value in OD450 with no unit label.

q: Give me measured OD450, please, for this binder: monoclonal antibody 98G10 (antibody, V domains shown, Rabbit monoclonal antibody) VH: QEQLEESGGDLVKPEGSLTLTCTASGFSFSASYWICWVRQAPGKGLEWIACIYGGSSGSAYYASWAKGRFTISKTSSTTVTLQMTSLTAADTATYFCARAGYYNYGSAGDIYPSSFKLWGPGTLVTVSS VL: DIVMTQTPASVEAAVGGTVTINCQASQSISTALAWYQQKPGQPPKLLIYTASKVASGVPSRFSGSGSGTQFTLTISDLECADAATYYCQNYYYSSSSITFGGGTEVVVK
a: 1.6
